Numbers sourced from PubChem BioAssay (NCI).

- Tested on: HS 578T breast
- Assay Info: NCI-60 one-dose screen, 48 h (100 = growth as untreated, 0 = no growth, -100 = all killed)
- Protocol Conditions: 10 µM unless noted
- Experimental: Growth inhibition of the HS 578T human tumor cell line is measured as a screen for anti-cancer activity. Cells are grown in 96 well plates and exposed to the test compound for 48 hours. Compounds are tested at a single concentration, which is 10^-5 M for most compounds. The reported endpoint is percent growth (GI% or GIPRCNT), where numbers from 0 - 100% represent growth inhibition, and numbers from -100% - 0 represent cell death. For example, a value of 40 represents 60% growth inhibition. […]
About 83,000 compounds went through this panel and 20% of them were active in at least one assay; those are over-represented in the sample as a whole.
This section presents molecules with their documented growth values.
Result Type: growth (%)

>>> data_value("CS(=O)(=O)c1ccc(/C(=N/N=C(N)N)c2ccc(Cl)cc2)cc1")
91.8
>>> data_value("Cc1ccccc1NC(=O)Nc1nc2ccc([N+](=O)[O-])cc2s1")
24.1
>>> data_value("NS(=O)(=O)c1ccc(CCn2c(-c3ccc(C(=O)O)cc3)nc(-c3ccccc3)c2-c2ccccc2)cc1")
101
>>> data_value("COc1cc2cc(Oc3ccc(NC(=O)c4cc(C(F)(F)F)cc(C(F)(F)F)c4)cc3)c(C)nc2cc1OCCN1CCOCC1")
36.7
>>> data_value("COc1ccc2[nH]cc(-c3nc(N)nnc3-c3cn(C)c4ccc(Br)cc34)c2c1")
16.9
>>> data_value("COc1ccc(-c2nc(C#N)c(N3CCC(S(=O)(=O)N4CCOCC4)CC3)o2)cc1")
102
>>> data_value("CN1CCN(Cc2ccc(/C=N/Nc3ccnc4cc(Cl)ccc34)cc2)CC1")
89.3
>>> data_value("COc1ccc(/C(=N\\N=C(N)N)c2ccc(Cl)cc2)cc1OC")
67.5
>>> data_value("Cc1c(C(=O)/C=C/c2ccc(Cl)cc2)nnn1-c1ccc2oc(=O)ccc2c1")
109

###

- Test system: MDA-MB-435 melanoma
- Assay Info: NCI-60 one-dose screen, 48 h (100 = growth as untreated, 0 = no growth, -100 = all killed)
- Protocol Conditions: 10 µM unless noted
The panel holds about 83,000 compounds, 20% with a hit somewhere; the sample as a whole holds those more often.
Result Type: growth (%)

>>> data_value("O=C(/C=C/c1cccc(F)c1)c1cccc(OCCCCOc2cccc(C(=O)/C=C/c3cccc(F)c3)c2)c1")
103
>>> data_value("Cc1ccc(OCc2occc2C(=O)N2CCOCC2)cc1")
100
>>> data_value("CC(Nc1c(C#N)cnc2ccc(-c3cncc(O)c3)cc12)c1ccccc1 (stereo not given)")
25.2
>>> data_value("COc1ccc(-c2cnc(NC(=O)CCCCCCNC(=O)C(O)(O)C(F)(F)F)s2)cc1")
5.55
>>> data_value("C(=N\\Nc1nc(N/N=C/c2ccc3c(c2)OCO3)nc(N2CCCCC2)n1)/c1ccc2c(c1)OCO2")
98.5

###

- Tested on: TK-10 renal
- Assay Info: NCI-60 one-dose screen, 48 h
- Protocol Conditions: 10 µM unless noted
About 83,000 compounds went through this panel and 20% of them were active in at least one assay; those are over-represented in the sample as a whole. The source made the active and inactive calls. The calls were made as follows: active = growth percent below 10; inactive = the rest.
Classes used: yes (1) = active, no (0) = inactive

>>> group_label("CN1CCN(Cc2ccc(NC(=O)c3cncc(C#Cc4cnc5ccc(N6CCOCC6)nn45)c3)cc2C(F)(F)F)CC1")
"yes (1)"
>>> group_label("COc1ccc2c(c1)C=CC1(O2)Oc2ccc(OC)cc2C=C1C (configuration not stated)")
"no (0)"
>>> group_label("CC1(C)CC[C@]23CC[C@]4(C)[C@H](CC[C@@H]5[C@@]6(C)CC[C@H](NCO)C(C)(C)[C@@H]6CC[C@]54C)[C@H]2[C@H]1OC3")
"no (0)"
>>> group_label("C#Cc1nc(/C=C/CCCCCCC(=O)NO)cs1")
"no (0)"
>>> group_label("O=C(Nc1ccccc1)Nc1nc2ccc([N+](=O)[O-])cc2[nH]1")
"no (0)"
>>> group_label("CN1CCN(Cc2ccc(NC(=O)c3cncc(C#Cc4cnc5ccc(NCCO)nn45)c3)cc2C(F)(F)F)CC1")
"yes (1)"
>>> group_label("COc1ccc(/C=N/N=C(/c2ccccc2)c2ccc3nc(-c4ccc(Cl)cc4)[nH]c3c2)cc1")
"no (0)"
>>> group_label("Fc1cc(F)cc(NNC(=S)c2ccccc2)c1")
"no (0)"
>>> group_label("O=C(N/N=C\\c1ccc([N+](=O)[O-])cc1)c1ccc2nc(-c3ccc(Br)cc3)[nH]c2c1")
"no (0)"
>>> group_label("COc1ccc(/C=N\\NC(=O)c2cnn(CC(O)c3ccccc3)c2N)cc1OCc1ccc(Cl)cc1 (configuration not stated)")
"no (0)"
>>> group_label("CCCc1[nH]c(-c2cc(N)ccc2Cl)c2c1C(=O)CCCC2")
"no (0)"
>>> group_label("COc1ccc(/C=N/NC(=O)c2c(N)nn(C)c2Nc2ccccc2)cc1")
"no (0)"

###

- System: SK-MEL-2 melanoma
- Assay Info: NCI-60 one-dose screen, 48 h (100 = growth as untreated, 0 = no growth, -100 = all killed)
- Protocol Conditions: 10 µM unless noted
Compounds without any hit were thinned out: in the full panel of roughly 83,000, 20% have a hit.
This section presents compounds with their documented growth values.
Result Type: growth (%)

>>> data_value("CC(C)(C)OC(=O)NCc1ccc(CNc2c([N+](=O)[O-])cnc3ccccc23)cc1")
29.7
>>> data_value("COc1cc(C(=O)c2cc(C(C)=O)c3c(C)cccn23)cc(OC)c1OC")
98.9
>>> data_value("O=C(CSc1nnc(-c2ccc(Cl)cc2)n1-c1ccccc1)Nc1ccccc1Cl")
95.5
>>> data_value("CNC(=O)c1cc(N2CCc3cc(NC(=O)Nc4ccc(N5CCOCC5)c(C(F)(F)F)c4)ccc32)ccn1")
45.6
>>> data_value("CCS(=O)(=O)Nc1ccc(C(=O)CC2(O)C(=O)Nc3ccccc32)cc1 (stereo not given)")
113
>>> data_value("CC(Nc1c(C#N)cnc2ccc(-c3cncc(O)c3)cc12)c1ccccc1 (stereo not given)")
-43.6
>>> data_value("CCCCCN1C(=O)/C(=c2\\sc3n(c2=O)C2C(NN=3)N(CC)C(=O)N2CC)c2cccc(C)c21 (stereo not given)")
97.1
>>> data_value("OCC(Nc1ncnc2ccc(-c3cnc4cnccn34)cc12)c1ccccc1 (stereo not given)")
45
>>> data_value("O=C(Nc1cc(C(F)(F)F)cc(C(F)(F)F)c1)Nc1ccc2oc(=O)ccc2c1")
-18.5
>>> data_value("Clc1ccc2c(N/N=C/c3c[nH]c4ccccc34)ccnc2c1")
-82.2

###

- System: UACC-62 melanoma
- Assay Info: NCI-60 one-dose screen, 48 h
- Protocol Conditions: 10 µM unless noted
About 83,000 compounds went through this panel and 20% of them were active in at least one assay; those are over-represented in the sample as a whole. Activity calls are given as the source filed them. Rule for the calls: active = growth percent below 10; inactive = the rest.
Classes used: 1.0 = active, 0.0 = inactive

>>> group_label("Fc1ccc(-c2cn3c(-c4c[nH]c5ccc(Br)cc45)csc3n2)cc1")
0.0
>>> group_label("Cn1ncc2c(C(=O)c3ccc(F)cc3)nc(C(C)(C)C)nc21")
0.0
>>> group_label("CN1CCN(c2ccc(Nc3nc(NCCNS(=O)(=O)c4ccc(Cl)cc4)c4sccc4n3)cc2)CC1")
0.0
>>> group_label("COC(=O)CCCNCCCn1ccc2cc(NCc3cccc(-c4ccccc4)c3C)ccc21")
0.0
>>> group_label("O=C(CSc1nc2ccccc2c(=O)n1-c1ccc(Cl)cc1)N/N=C/c1ccc(Oc2ccc(Cl)cc2)cc1")
1.0
>>> group_label("Cn1ncc2ncc(-c3ccc4ncc(C#N)c(N5CCc6cc(F)c(Cl)cc65)c4c3)cc21")
0.0
>>> group_label("CC[C@H](CC[C@@H](C)[C@H]1CC[C@H]2[C@@H]3CC(=O)C4=CC(=O)/C(=C/c5ccc([N+](=O)[O-])cc5)C[C@]4(C)[C@H]3CC[C@]12C)C(C)C")
0.0
>>> group_label("Cc1c(C(=O)/C=C/c2ccc(Cl)cc2)nnn1-c1ccc2oc(=O)ccc2c1")
0.0
>>> group_label("O=C1Nc2ccccc2/C1=N\\c1nnc(-c2ccccc2)o1")
0.0
>>> group_label("O=C(CSc1cc[n+](CCCCO)c2ccccc12)n1ccc2ccccc21")
0.0
>>> group_label("C=C(C)[C@@H]1CC[C@]2(COCCCNCCCN)CC[C@]3(C)[C@H](CC[C@@H]4[C@@]5(C)CC[C@H](O)C(C)(C)[C@@H]5CC[C@]43C)[C@@H]12")
1.0
>>> group_label("COc1ccc(/C=N/NC(=O)c2c(N)nn(C)c2Nc2ccccc2)cc1")
0.0
>>> group_label("Cn1cc(-c2nnc(N)nc2-c2c[nH]c3ccc(Br)cc23)c2cc(Br)ccc21")
0.0
>>> group_label("COc1ccc(C2CC(c3cccc(OCCCCOc4cccc(C5=NOC(c6ccc(OC)cc6)C5)c4)c3)=NO2)cc1 (stereo not drawn)")
0.0
>>> group_label("CN1CCN(Cc2ccc(NC(=O)c3cncc(C#Cc4cnc5ccc(NCCO)nn45)c3)cc2C(F)(F)F)CC1")
1.0
>>> group_label("N#Cc1c(-c2cccs2)cc(-c2cnccn2)nc1SCC(=O)N/N=C/c1ccccc1")
0.0
>>> group_label("COc1ccc(CC(C)=C(c2ccc(OCCN3CCCC3)cc2)c2ccc(OCCN3CCCC3)cc2)cc1")
1.0
>>> group_label("CCc1cc(O)ccc1Nc1cc(-c2ccc(-n3cccn3)cc2)[nH]n1")
0.0
